# Test system: NCI-H226
# experimental protocol: Antitumor activity against human NCI-H226 assessed as cell growth inhibition at 10 uM incubated for 48 hrs by sulforhodamine B assay
# Format: functional
# condition notes: read-out: GI
reported metric: inhibition of growth at 10 µM (%)
Report the figure in % without appending any unit label.

// query Looking for the measured inhibition of growth at 10 µM of N#Cc1c(-c2ccccc2)nc2c(/N=N/c3ccc(S(N)(=O)=O)cc3)c(N)nn2c1N , can you help?
// result 24

// query # repeat for N#Cc1c(-c2ccc(Cl)cc2)nc2c(/N=N/c3ccc(S(N)(=O)=O)cc3)c(N)nn2c1N
// result 25

// query # repeat for Cc1ccc(-c2cn3nc(N)c(/N=N/c4ccc(S(N)(=O)=O)cc4)c3[nH]2)cc1
// result 27

// query # repeat for Cc1ccc(-c2nc3c(/N=N/c4ccc(S(N)(=O)=O)cc4)c(N)nn3c(N)c2C#N)cc1
// result 35

// query # repeat for N#Cc1c(-c2ccc(F)cc2)nc2c(/N=N/c3ccc(S(N)(=O)=O)cc3)c(N)nn2c1N
// result 25

// query # repeat for Nc1nn2cc(-c3ccccc3)[nH]c2c1/N=N/c1ccc(S(N)(=O)=O)cc1
// result 47

// query # repeat for N#Cc1c(-c2ccc(Br)cc2)nc2c(/N=N/c3ccc(S(N)(=O)=O)cc3)c(N)nn2c1N
// result 34

====

# Tested on: T47D
# experimental protocol: Antitumor activity against human T-47D cells assessed as cell growth inhibition at 10 uM incubated for 48 hrs by sulforhodamine B assay
# Assay type: functional
# condition notes: read-out: GI
reported metric: inhibition of growth at 10 µM (%)
Report the figure in % without appending any unit label.

// query Look up inhibition of growth at 10 µM with T47D for this molecule: Nc1nn2cc(-c3ccc(Br)cc3)[nH]c2c1/N=N/c1ccc(S(N)(=O)=O)cc1
// result 46

// query # repeat for Cc1ccc(-c2cn3nc(N)c(/N=N/c4ccc(S(N)(=O)=O)cc4)c3[nH]2)cc1
// result 39

// query # repeat for N#Cc1c(-c2ccc(Cl)cc2)nc2c(/N=N/c3ccc(S(N)(=O)=O)cc3)c(N)nn2c1N
// result 56

// query # repeat for Nc1nn2cc(-c3ccccc3)[nH]c2c1/N=N/c1ccc(S(N)(=O)=O)cc1
// result 57

// query # repeat for N#Cc1c(-c2ccc(Br)cc2)nc2c(/N=N/c3ccc(S(N)(=O)=O)cc3)c(N)nn2c1N
// result 68

// query # repeat for N#Cc1c(-c2ccc(F)cc2)nc2c(/N=N/c3ccc(S(N)(=O)=O)cc3)c(N)nn2c1N
// result 48

// query # repeat for Nc1nn2cc(-c3ccc(F)cc3)[nH]c2c1/N=N/c1ccc(S(N)(=O)=O)cc1
// result 22

// query # repeat for Cc1ccc(-c2nc3c(/N=N/c4ccc(S(N)(=O)=O)cc4)c(N)nn3c(N)c2C#N)cc1
// result 66

// query # repeat for N#Cc1c(-c2ccccc2)nc2c(/N=N/c3ccc(S(N)(=O)=O)cc3)c(N)nn2c1N
// result 26

====

Give measured pKi for each item. Keep answers brief.
# assayed target: Carbonic anhydrase 9 (Homo sapiens)
# experimental protocol: Inhibition of recombinant human carbonic anhydrase 9 preincubated with enzyme for 15 mins by phenol red dye based stopped flow CO2 hydrase assay
As a rule, pKi stands for the negative log10 of the concentration, concentration in M.

// query Looking for the measured pKi of Cc1ccc(-c2ccnc3c(/N=N/c4ccc(S(N)(=O)=O)cc4)c(N)nn23)cc1 , can you help?
// result 7.34

// query # repeat for N#Cc1c(-c2ccc(Br)cc2)nc2c(/N=N/c3ccc(S(N)(=O)=O)cc3)c(N)nn2c1N
// result 7.18

// query # repeat for N#Cc1c(-c2ccc(F)cc2)nc2c(/N=N/c3ccc(S(N)(=O)=O)cc3)c(N)nn2c1N
// result 8.06

// query # repeat for Nc1nn2cc(-c3ccc(Br)cc3)[nH]c2c1/N=N/c1ccc(S(N)(=O)=O)cc1
// result 7.35

// query # repeat for COc1ccc(-c2ccnc3c(/N=N/c4ccc(S(N)(=O)=O)cc4)c(N)nn23)cc1
// result 7.53

====

# System: SF-268
# experimental protocol: Antitumor activity against human SF268 cells assessed as cell growth inhibition at 10 uM incubated for 48 hrs by sulforhodamine B assay
# Type: functional
# condition notes: read-out: GI
Label Not met if inhibition of growth at 10 µM falls below 40%; label Met in every other case.

// query Hi, just wondering whether Cc1ccc(-c2cn3nc(N)c(/N=N/c4ccc(S(N)(=O)=O)cc4)c3[nH]2)cc1 shows inhibition of growth at 10 µM of 40% or higher.
// result Met

// query # repeat for Nc1nn2cc(-c3ccc(Br)cc3)[nH]c2c1/N=N/c1ccc(S(N)(=O)=O)cc1
// result Met

// query # repeat for Nc1nn2cc(-c3ccc(F)cc3)[nH]c2c1/N=N/c1ccc(S(N)(=O)=O)cc1
// result Not met

// query # repeat for Cc1ccc(-c2nc3c(/N=N/c4ccc(S(N)(=O)=O)cc4)c(N)nn3c(N)c2C#N)cc1
// result Met

// query # repeat for N#Cc1c(-c2ccc(Cl)cc2)nc2c(/N=N/c3ccc(S(N)(=O)=O)cc3)c(N)nn2c1N
// result Not met

// query # repeat for N#Cc1c(-c2ccc(Br)cc2)nc2c(/N=N/c3ccc(S(N)(=O)=O)cc3)c(N)nn2c1N
// result Met

// query # repeat for Nc1nn2cc(-c3ccccc3)[nH]c2c1/N=N/c1ccc(S(N)(=O)=O)cc1
// result Met

====

Give measured inhibition of growth at 10 µM for each item. Keep answers brief.
# System: SNB-75
# experimental protocol: Antitumor activity against human SNB-75 cells assessed as cell growth inhibition at 10 uM incubated for 48 hrs by sulforhodamine B assay
# Type: functional
# condition notes: read-out: GI
Report the figure in % without appending any unit label.

// query Looking for the measured inhibition of growth at 10 µM of Cc1ccc(-c2cn3nc(N)c(/N=N/c4ccc(S(N)(=O)=O)cc4)c3[nH]2)cc1 , can you help?
// result 66

// query # repeat for N#Cc1c(-c2ccc(Br)cc2)nc2c(/N=N/c3ccc(S(N)(=O)=O)cc3)c(N)nn2c1N
// result 43

// query # repeat for Nc1nn2cc(-c3ccccc3)[nH]c2c1/N=N/c1ccc(S(N)(=O)=O)cc1
// result 99

// query # repeat for Nc1nn2cc(-c3ccc(Br)cc3)[nH]c2c1/N=N/c1ccc(S(N)(=O)=O)cc1
// result 64

// query # repeat for Cc1ccc(-c2nc3c(/N=N/c4ccc(S(N)(=O)=O)cc4)c(N)nn3c(N)c2C#N)cc1
// result 51

// query # repeat for Nc1nn2cc(-c3ccc(F)cc3)[nH]c2c1/N=N/c1ccc(S(N)(=O)=O)cc1
// result 44

// query # repeat for N#Cc1c(-c2ccc(F)cc2)nc2c(/N=N/c3ccc(S(N)(=O)=O)cc3)c(N)nn2c1N
// result 33

// query # repeat for Nc1nn2cc(-c3ccc(Cl)cc3)[nH]c2c1/N=N/c1ccc(S(N)(=O)=O)cc1
// result 23

====

# System: OVCAR-8
# experimental protocol: Antitumor activity against human OVCAR-8 cells assessed as cell growth inhibition at 10 uM incubated for 48 hrs by sulforhodamine B assay
# Type: functional
# condition notes: read-out: GI
Label not fulfilled if inhibition of growth at 10 µM falls below 40%; label fulfilled in every other case.

// query Hi, just wondering whether N#Cc1c(-c2ccc(F)cc2)nc2c(/N=N/c3ccc(S(N)(=O)=O)cc3)c(N)nn2c1N shows inhibition of growth at 10 µM of 40% or higher.
// result not fulfilled

// query # repeat for N#Cc1c(-c2ccc(Cl)cc2)nc2c(/N=N/c3ccc(S(N)(=O)=O)cc3)c(N)nn2c1N
// result not fulfilled

// query # repeat for Nc1nn2cc(-c3ccc(Br)cc3)[nH]c2c1/N=N/c1ccc(S(N)(=O)=O)cc1
// result not fulfilled

// query # repeat for Nc1nn2cc(-c3ccccc3)[nH]c2c1/N=N/c1ccc(S(N)(=O)=O)cc1
// result fulfilled

// query # repeat for Nc1nn2cc(-c3ccc(F)cc3)[nH]c2c1/N=N/c1ccc(S(N)(=O)=O)cc1
// result not fulfilled

// query # repeat for Cc1ccc(-c2cn3nc(N)c(/N=N/c4ccc(S(N)(=O)=O)cc4)c3[nH]2)cc1
// result fulfilled

// query # repeat for N#Cc1c(-c2ccc(Br)cc2)nc2c(/N=N/c3ccc(S(N)(=O)=O)cc3)c(N)nn2c1N
// result fulfilled

// query # repeat for Cc1ccc(-c2nc3c(/N=N/c4ccc(S(N)(=O)=O)cc4)c(N)nn3c(N)c2C#N)cc1
// result fulfilled

====

Give measured inhibition of growth at 10 µM for each item. Keep answers brief.
# Test system: OVCAR-5
# experimental protocol: Antitumor activity against human OVCAR-5 cells assessed as cell growth inhibition at 10 uM incubated for 48 hrs by sulforhodamine B assay
# Assay type: functional
# condition notes: read-out: GI
Report the figure in % without appending any unit label.

// query Looking for the measured inhibition of growth at 10 µM of Cc1ccc(-c2cn3nc(N)c(/N=N/c4ccc(S(N)(=O)=O)cc4)c3[nH]2)cc1 , can you help?
// result 23

// query # repeat for Nc1nn2cc(-c3ccc(Br)cc3)[nH]c2c1/N=N/c1ccc(S(N)(=O)=O)cc1
// result 24

// query # repeat for Nc1nn2cc(-c3ccccc3)[nH]c2c1/N=N/c1ccc(S(N)(=O)=O)cc1
// result 35

// query # repeat for N#Cc1c(-c2ccc(Br)cc2)nc2c(/N=N/c3ccc(S(N)(=O)=O)cc3)c(N)nn2c1N
// result 28

// query # repeat for Cc1ccc(-c2nc3c(/N=N/c4ccc(S(N)(=O)=O)cc4)c(N)nn3c(N)c2C#N)cc1
// result 21
